target: 5HT2A receptor (Homo sapiens, UniProt P28223); test: cell-based; design: expressed in transfected cells; host or cells: HEK293T cells, transient co-transfection; conditions: HEK-293T, BRET2 Gαq dissociation, HEK293T, normalized to 5-HT; read-out: 5HTA Gq Emax (%)
Sequence (P28223 whole entry): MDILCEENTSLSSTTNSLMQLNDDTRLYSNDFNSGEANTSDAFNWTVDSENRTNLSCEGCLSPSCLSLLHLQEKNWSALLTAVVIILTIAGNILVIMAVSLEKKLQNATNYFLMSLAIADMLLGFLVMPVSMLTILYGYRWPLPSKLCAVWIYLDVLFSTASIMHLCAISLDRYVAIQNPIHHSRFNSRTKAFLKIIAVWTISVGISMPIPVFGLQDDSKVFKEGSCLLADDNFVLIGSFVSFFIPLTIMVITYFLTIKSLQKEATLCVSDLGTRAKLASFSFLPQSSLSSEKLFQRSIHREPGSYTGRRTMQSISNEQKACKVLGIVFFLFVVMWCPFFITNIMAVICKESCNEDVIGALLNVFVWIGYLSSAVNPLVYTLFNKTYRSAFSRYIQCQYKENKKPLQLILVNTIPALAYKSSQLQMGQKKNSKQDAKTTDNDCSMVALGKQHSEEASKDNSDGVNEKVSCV
Each entry below lists one item and its recorded Emax value.
OBSERVABLE: Emax (%)

• Fc1cc(Cl)c2[nH]nc(C34CNCCC3C4)c2c1 (stereo not shown) [Example 196] = 67
• Cc1cccc2c(C34CCNCC3C4)n[nH]c12 (stereo not shown) [Example 226] = 91
• Cc1cccc2c(C34CNCCC3C4)c[nH]c12 (stereo not shown) [Example 271] = 80.1
• Cc1cccc2c(C34CC3CN(C)C4)n[nH]c12 (stereo not shown) [Example 227] = 32.5
• Clc1cccc2c(C3=CCNC3)c[nH]c12 [Example 209] = 100
• CCCN1CCC=C(c2c[nH]c3c(C#N)cccc23)C1 [Example 157] = 78
• CCCN1CCC=C(c2c[nH]c3c(F)cccc23)C1 [Example 156] = 103
• Fc1cccc2c(C34CNCCC3C4)n[nH]c12 (stereo not shown) [Example 194] = 64.4
• Fc1ccc(Cl)c2[nH]nc(C3=CCCNC3)c12 [Example 131] = 106
• CCCN1CCC=C(c2c[nH]c3c(C)c(F)ccc23)C1 [Example 162] = 80.6

Hello, the source for this data is patent US20260265246A1, in case you need it.
